- tested-on: LFA-1 (Homo sapiens, UniProt P20701)
- Construct: endogenous in cells
- Sequence (P20701 26-1170): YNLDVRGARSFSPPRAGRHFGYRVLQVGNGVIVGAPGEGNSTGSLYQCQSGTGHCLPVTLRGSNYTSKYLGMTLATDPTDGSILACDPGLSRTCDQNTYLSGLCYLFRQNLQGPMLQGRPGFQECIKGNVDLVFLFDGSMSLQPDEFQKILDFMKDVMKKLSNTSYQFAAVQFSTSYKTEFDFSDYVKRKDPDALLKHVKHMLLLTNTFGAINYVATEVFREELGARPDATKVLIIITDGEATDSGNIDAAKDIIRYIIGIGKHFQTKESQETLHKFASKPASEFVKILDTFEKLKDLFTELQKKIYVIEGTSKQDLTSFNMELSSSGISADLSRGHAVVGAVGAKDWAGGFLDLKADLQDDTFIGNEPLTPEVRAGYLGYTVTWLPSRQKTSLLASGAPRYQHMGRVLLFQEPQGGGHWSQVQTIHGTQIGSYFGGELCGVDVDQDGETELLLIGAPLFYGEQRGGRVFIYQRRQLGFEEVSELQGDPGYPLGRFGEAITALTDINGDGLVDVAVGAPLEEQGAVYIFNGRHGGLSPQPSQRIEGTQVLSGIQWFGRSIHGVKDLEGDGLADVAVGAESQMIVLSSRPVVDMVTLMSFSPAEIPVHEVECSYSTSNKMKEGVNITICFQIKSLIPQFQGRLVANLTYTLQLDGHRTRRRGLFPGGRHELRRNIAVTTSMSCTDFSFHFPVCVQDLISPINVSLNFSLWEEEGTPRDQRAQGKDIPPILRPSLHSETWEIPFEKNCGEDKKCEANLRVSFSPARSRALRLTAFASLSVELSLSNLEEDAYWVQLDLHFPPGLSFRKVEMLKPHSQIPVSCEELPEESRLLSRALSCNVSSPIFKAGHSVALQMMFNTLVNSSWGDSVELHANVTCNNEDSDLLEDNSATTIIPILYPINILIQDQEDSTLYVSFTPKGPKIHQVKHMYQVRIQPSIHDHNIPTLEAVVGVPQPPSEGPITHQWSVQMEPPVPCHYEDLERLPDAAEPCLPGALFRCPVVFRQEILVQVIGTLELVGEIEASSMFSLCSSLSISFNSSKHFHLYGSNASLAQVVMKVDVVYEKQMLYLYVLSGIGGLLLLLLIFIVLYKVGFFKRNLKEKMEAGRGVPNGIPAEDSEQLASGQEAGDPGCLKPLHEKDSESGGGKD
- Sequence (P05107 23-769 partner): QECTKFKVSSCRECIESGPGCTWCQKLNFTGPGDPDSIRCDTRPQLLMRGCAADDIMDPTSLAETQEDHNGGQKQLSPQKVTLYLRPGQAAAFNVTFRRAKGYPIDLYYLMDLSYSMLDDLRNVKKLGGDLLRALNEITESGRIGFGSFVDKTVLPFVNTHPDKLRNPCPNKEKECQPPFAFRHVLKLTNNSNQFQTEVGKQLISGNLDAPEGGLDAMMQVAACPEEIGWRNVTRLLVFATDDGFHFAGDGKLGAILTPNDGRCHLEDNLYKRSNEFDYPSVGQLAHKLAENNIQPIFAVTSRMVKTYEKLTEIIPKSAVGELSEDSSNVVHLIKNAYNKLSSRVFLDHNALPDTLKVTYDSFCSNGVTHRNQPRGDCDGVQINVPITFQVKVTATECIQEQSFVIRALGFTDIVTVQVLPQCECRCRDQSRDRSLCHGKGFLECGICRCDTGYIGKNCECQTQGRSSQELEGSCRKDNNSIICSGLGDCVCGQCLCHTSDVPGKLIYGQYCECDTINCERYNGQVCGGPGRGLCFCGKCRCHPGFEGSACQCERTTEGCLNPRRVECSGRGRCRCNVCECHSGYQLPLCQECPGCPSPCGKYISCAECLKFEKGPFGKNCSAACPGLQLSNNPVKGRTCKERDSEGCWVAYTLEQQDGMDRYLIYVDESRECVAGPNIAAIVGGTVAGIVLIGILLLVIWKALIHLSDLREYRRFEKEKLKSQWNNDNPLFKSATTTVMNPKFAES
- measurement-description: V well cell adhesion assay, LFA-1-mediated Jurkat cell binding to ICAM-1 (LFA-1 adhesion)
- test-context: Jurkat cells on ICAM-1/Fc; mean ±SD of ≥3 independent experiments in triplicates or single experiments in triplicates
assay-metric: IC50 (nM)

CC12C(=O)N(c3cc(Cl)cc(Cl)c3)C(=O)C1C2(c1ccccc1)c1ccccc1 (single isomer, unassigned) [4b enantiomer A]	1340

I. C[C@]12C(=O)N(c3cc(Cl)cc(Cl)c3)C(=O)[C@H]1[C@@]2(C(=O)N1CCOCC1)c1ccc(Br)cc1 (racemic) [4′k (racemate)]
II. C[C@]12C(=O)N(c3cc(Cl)cc(Cl)c3)C(=O)[C@H]1[C@@]2(C(=O)N1CCOCC1)c1ccc(C#N)cc1 (racemic) [4′n (racemate)]
III. C[C@]12C(=O)N(c3cc(Cl)cc(Cl)c3)C(=O)[C@H]1C2(c1ccc(OC(F)(F)F)cc1)c1ccc(OC(F)(F)F)cc1 (racemic) [4q (racemate)]
List the 3 entries from lowest IC50 to highest IC50 value. The reply should contain the labels ordered as requested.
III, II, I
(III: 101 nM, II: 636 nM, I: 3470 nM)
